# Test system: MOLT-4 leukemia
# Protocol text: NCI tumour cell line growth inhibition, 48 h; in the data active means GI50 below about 0.43 µM; inactive means the rest
Outcomes: yes for active, no for inactive

Smiles input	Assigned label
CCOC(=O)C(Cc1ccc(CCCC(=O)NCCC(=O)Nc2ccc3nc(C)sc3c2)cc1)C(=O)OCC	no
CS(=O)(=O)CCNCc1nc(-c2ccc3ncnc(Nc4ccc(OCc5cccc(C(F)(F)F)c5)cc4)c3c2)cs1	no
NCCNc1c2c(c(NCCN)c3[nH]ccc13)C(=O)c1ccccc1C2=O	yes
O=c1cc(-c2cccc3ccccc23)[nH]c2ncccc12	yes
O=C1/C(=C/c2cccc(Cl)c2Cl)N=C(c2ccccc2)N1C1CC1	no
Cc1nn(-c2ccc(Cl)cc2)c2nc3c(nc12)C(=O)c1ccccc1-3	no
COc1cc(Cn2c(-c3ccccc3)c(Cl)c3c2-c2oncc2CC3)cc(OC)c1	no
COc1ccc(-c2nn(-c3ccc(NC(=O)c4ccc(Cl)c(Cl)c4)cc3)cc2-c2ccncc2)cc1Cl	no
COc1ccc2c(c1)C(=O)c1c-2c(N2CCN(C(=O)CNCCNCCO)CC2)nc2ccccc12	no
C=CCCCCOc1ccccc1-c1cnc(OCCCCC=C)n1C	no
COc1cc2c3c(n(C)c(=O)c2cc1OC)-c1cc2c(cc1/C3=C\CN)OCO2	yes
Clc1ccc2[nH]cc(-c3nnnn3-c3ccccc3)c2c1	no
COc1ccc(Nc2nnc(-c3cc(O)ccc3O)s2)cc1	no
Cc1ncc(C(=O)Nc2ccc(CN3CCN(C)CC3)c(C(F)(F)F)c2)cc1C#Cc1cnc(N)c2ccncc12	yes
COc1cc(-c2cc(-c3cc4c([nH]c5ccccc54)c(-c4cc(OC)c(OC)c(OC)c4)n3)cc(-c3ccccc3)n2)cc(OC)c1OC	no
O=C(Nc1ccncc1)C(=O)c1cn(S(=O)(=O)c2ccc(F)cc2)c2ccccc12	no

###

Reported GI50 values for the following compounds.
# System: MCF7 breast
# Protocol text: NCI tumour cell line growth inhibition, 48 h
Parameter: GI50

Compound	Parameter	Observed result
COc1ccc2c(c1)C(=O)c1c-2c(N2CCN(C(=O)CNCCNCCO)CC2)nc2ccccc12	GI50	1750 nM
CC(=O)OC12C=CC(=O)N1c1ccccc1C(=O)O2 (stereo unspecified)	GI50	> 100000 nM
CCOC(=O)Nc1ccc(-c2nc(-c3cccc(OCCN4CCOCC4)c3)c(-c3ccnc(Br)c3)[nH]2)cc1	GI50	1620 nM
[Cl][Hg][c]1cc[c]([Hg][Cl])o1	GI50	529 nM
COc1ccc2[nH]cc(C3(c4c[nH]c5ccc(OC)cc45)C(=O)Nc4ccc(F)cc43)c2c1	GI50	2720 nM
COc1cc(Cn2c(-c3ccccc3)c(Cl)c3c2-c2oncc2CC3)cc(OC)c1	GI50	3810 nM

###

# Tested on: BT-549 breast
# Protocol text: NCI tumour cell line growth inhibition, 48 h
Reported GI50 values for the following compounds.

Smiles input	Assay system	GI50
CC[C@H]1[C@@H]2C=C[C@@H]3[C@H]4C/C=C\C(=O)NCCC[C@@H]5NC(=O)/C(=C(O)/C=C/[C@@H]4C[C@@H]3[C@H]2C[C@H]1C)C5=O	BT-549 breast	1290 nM
Cn1cc(-c2csc(-c3c[nH]c4ccc(F)cc34)n2)c2cnccc21	BT-549 breast	1630 nM
Oc1cc2cccc[n+]2c2cc(Cl)ccc12	BT-549 breast	78000 nM

###

# Tested on: COLO 205 colon
# Protocol text: NCI tumour cell line growth inhibition, 48 h
Parameter: TGI (µM)

Molecule	Censor symbol	Observed result
C=C(C)[C@@H]1CC[C@]2(C)[C@H](CC=C3[C@@H]4CC(C)(C)CC[C@]4(C(N)=O)CC[C@]32C)[C@@]1(C)CCC#N	=	7.36
c1ccc(CCNc2ccccn2)nc1	>	100
Cn1cc(C2=C(c3cn(CCCCO)c4ccccc34)C(=O)NC2=O)c2ccccc21	>	19.5
Cc1c(N=Nc2ccc(Cl)cc2)c(-c2ccccc2)n(C2OC(CO)C(O)C(O)C2O)c(=S)c1C#N (stereo not given)	=	37.7
CNCC#Cc1c(F)ccc2c1/C(=C/c1[nH]ccc1OC)C(=O)N2	=	0.48

###

# Tested on: DLD-1 colon
# Protocol text: NCI tumour cell line growth inhibition, 48 h
Parameter: TGI

Compound	Observed result
COc1cc(NCc2ccc3nc(N)nc(N)c3c2C)cc(OC)c1OC (tested in a mixture with another compound)	95.6 µM
NC(=O)C12CC3CC(CC(F)(C3)C1)C2	> 100 µM
CN1CCOC(c2ccccc2)O1 (stereo not given)	> 100 µM
COC1(OC)C(N(C)C)=C(Cl)C(=O)/C1=C/C=O	> 100 µM
CN(C)CCC(=O)c1ccccc1	41 µM
CN=C1CC2c3cc(OC)c(OC)cc3CCN2C2=C1C(=O)CC(C)(C)C2 (stereo not given)	> 100 µM
C1CN2CCN3CCN4CCN1[P+]243	> 100 µM
CC1(C)N=C(N)N=C(N)N1c1ccc(CCc2ccccc2)cc1	> 100 µM
[N-]=[N+]=N[C@H]1C[C@@H](CO)O[C@H]1n1cnc2c(N)ncnc21	> 100 µM
COc1ccc(CC2NCCc3c2[nH]c2ccccc32)cc1 (stereo not given)	> 100 µM
CCN1CCC(O)(c2ccc(OC)cc2)C(C(=O)c2ccc(OC)cc2)C1 (stereo not given)	36.3 µM
CC(OC(C)(C)C)[C@H](NC(=O)OCC(Cl)(Cl)Cl)C(=O)O (stereo not given in full)	> 100 µM
COc1cc2c(c(OC)c1OC)-c1ccc(SC)c(=O)cc1C(NC=O)CC2 (stereo not given)	> 100 µM
CCOc1ccc(NC(=O)CC#N)cc1	> 100 µM
CC(=O)c1sc(Nc2nnc(-c3ccc(-c4nnc(Nc5nc(C)c(C(C)=O)s5)o4)cc3)o2)nc1C	> 100 µM

###

# Tested on: SF-268 CNS
# Protocol text: NCI tumour cell line growth inhibition, 48 h

Compound	TGI
Nc1nc(SC/C=C/c2ccccc2)c2[nH]cnc2n1	> 100 µM
CCOc1ccccc1NC(=O)C(=O)CC(=O)c1sc(Nc2nnc(-c3ccc(Cl)c(Cl)c3)o2)nc1C	> 100 µM
COc1cc(NCc2ccc3nc(N)nc(N)c3c2C)cc(OC)c1OC (tested in a mixture with another compound)	66.8 µM
Cc1ccccc1N1C(=O)C2C=CC(n3[nH]c(=O)n(Cc4ccccc4)c3=O)CC2C1=O (stereo not given)	> 100 µM
CCCNC(=S)NNC(=O)CSc1nc(-c2ccccc2)c(-c2ccccc2)[nH]1	> 100 µM
COc1cc(C2c3cc4c(cc3OC3(OC)COC(=O)C23)OCO4)cc(OC)c1OC(C)=O (stereo not given)	> 100 µM
Cc1ccnc2[nH]c3ccccc3c(=O)c12	45.5 µM
COC(=O)c1ccccc1/C=C1\Cc2ccc(C)c(C)c2C1=O	> 100 µM
CN(CC(=O)O)c1ncc2c(n1)CCCC2	> 100 µM
N#Cc1c(N)n(-c2cccc(C(=O)O)c2)c(=O)c2cc([N+](=O)[O-])ccc12	> 100 µM

###

Reported TGI values for the following compounds.
# Tested on: M14 melanoma
# Protocol text: NCI tumour cell line growth inhibition, 48 h
Parameter: TGI

Compound	Observed result
CCCN1C(=O)N(CCC)C2C1NC(=S)N2/N=C/C=C/c1ccccc1OC (centres undefined)	> 100 µM
COc1ccc(-c2nc3ccc(-c4nc5ccc(N6CCN(c7ccccc7)CC6)cc5[nH]4)cc3[nH]2)cc1OC	6.32 µM
COc1cc2c(c(OC)c1OC)-c1ccc(SC)c(=O)cc1C(NC=O)CC2 (centres undefined)	> 21.5 µM
N#CC(C(=O)C(=O)C(C#N)c1ccc(Br)cc1)c1ccc(Br)cc1 (centres undefined)	31.6 µM
CC(C)Oc1ccc2cc(-c3nn(CC4CCNCC4)c4ncnc(N)c34)ccc2c1	4.68 µM
Nc1nc(N)c2c3c(cnc2n1)CC(c1ccccc1)CC3 (centres undefined)	> 100 µM
CCC(/C=C/C1OC(=O)C=CC1C)=C\C(C)C/C=C/C(C)=C/C(C)C(=O)C(C)C(O)C(C)C/C(C)=C/C(=O)O (centres undefined)	3.68e-05 µM
N#Cc1c(N)nc2n[nH]c(N)c2c1-c1ccc(Cl)cc1	> 39.8 µM
COC(=O)C(Cc1nc2ccc(Cl)cc2[nH]c1=O)/C(=N\N)C(=O)Nc1cc(C)c(Cl)cc1S(=O)(=O)O (centres undefined)	> 100 µM

###

# System: DMS 273 small cell lung
# Protocol text: NCI tumour cell line growth inhibition, 48 h
Parameter: TGI

Compound	Observed result
CC1CN(C(=O)CN2CCC(CCCCN(C)C)CC2)c2ccccc2NC1=O (stereo not drawn)	> 100 µM
CCN1CCC(O)(c2ccc(OC)cc2)C(C(=O)c2ccc(OC)cc2)C1 (stereo not drawn)	50.2 µM
[N-]=[N+]=N[C@H]1C[C@@H](CO)O[C@H]1n1cnc2c(N)ncnc21	> 100 µM
CC(OC(C)(C)C)[C@H](NC(=O)OCC(Cl)(Cl)Cl)C(=O)O (stereo partly drawn)	> 100 µM
O=C(O)CCC(NC(=O)c1ccc(Nc2nc3cc(C(F)(F)F)ccc3nc2-c2ccccc2)cc1)C(=O)O (stereo not drawn)	46.6 µM
CN=C1CC2c3cc(OC)c(OC)cc3CCN2C2=C1C(=O)CC(C)(C)C2 (stereo not drawn)	> 100 µM
Cc1cc(Cl)ccc1NC(=O)C(=O)Cc1nc2ccccc2o1	> 100 µM
N#C/C1=C(\N)CCSSSC1	> 100 µM
CCOc1ccc(NC(=O)C(=O)CC(=O)c2c(C)n([O-])c3ccccc3[n+]2=O)cc1	> 100 µM
COc1cc(NS(C)(=O)=O)ccc1Nc1c2ccccc2nc2c1[nH]c1ccc(NC3OC(CO)C(O)C(O)C3O)cc12 (stereo not drawn)	0.261 µM
CCC(C)COC(=O)c1ccc(N=Cc2ccc(C=Nc3ccc(C(=O)OCC(C)CC)cc3)cc2)cc1 (stereo not drawn)	> 100 µM
CC(=O)OC12C=CC(=O)N1c1ccccc1C(=O)O2 (stereo not drawn)	> 100 µM
COC1(OC)C(N(C)C)=C(Cl)C(=O)/C1=C/C=O	> 100 µM
C1CN2CCN3CCN4CCN1[P+]243	> 100 µM
C1=CC(N(c2ccccc2)C2C=CCCC2)CCC1 (stereo not drawn)	> 100 µM
Cc1ccc(/C=C/C(=O)c2sc(-c3nc(C)c(C(=O)/C=C/c4ccc(C)cc4)s3)nc2C)cc1	> 100 µM
CCCNC(=S)NNC(=O)CSc1nc(-c2ccccc2)c(-c2ccccc2)[nH]1	> 100 µM
O=C1/C(=C/c2ccc(Cl)cc2)CCC1CCN1CCOCC1 (stereo not drawn)	> 100 µM
